Origin of the recorded values: the supplement of paper PMC8728848

Target: Neu5Ac(a2-8)Neu5Ac(a2-3)[GalNAc(b1-4)]Gal(b1-4)Glc
Test: glycan array binding signal (z-score within array); higher = stronger binding
Settings: glycan notation: IUPAC condensed, linker removed
Only a selection was taken, and the strongest signals are over-represented in it overall.
Binary call on glycan array binding signal (z-score): Y from -0.8 upward, N beneath that.

Here are 4 binders together with their reported answers.
binder	label value
FliC (Clostridium difficile) (protein) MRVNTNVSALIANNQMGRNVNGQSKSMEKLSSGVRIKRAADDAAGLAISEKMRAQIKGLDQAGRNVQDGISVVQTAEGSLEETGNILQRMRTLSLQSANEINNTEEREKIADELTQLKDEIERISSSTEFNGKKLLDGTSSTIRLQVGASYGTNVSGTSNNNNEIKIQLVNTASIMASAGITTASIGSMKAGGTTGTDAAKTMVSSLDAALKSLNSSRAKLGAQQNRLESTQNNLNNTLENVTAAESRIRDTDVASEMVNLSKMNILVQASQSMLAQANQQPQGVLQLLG	Y
SAOUHSC 02783 (Staphylococcus aureus), Q5HD69 (protein) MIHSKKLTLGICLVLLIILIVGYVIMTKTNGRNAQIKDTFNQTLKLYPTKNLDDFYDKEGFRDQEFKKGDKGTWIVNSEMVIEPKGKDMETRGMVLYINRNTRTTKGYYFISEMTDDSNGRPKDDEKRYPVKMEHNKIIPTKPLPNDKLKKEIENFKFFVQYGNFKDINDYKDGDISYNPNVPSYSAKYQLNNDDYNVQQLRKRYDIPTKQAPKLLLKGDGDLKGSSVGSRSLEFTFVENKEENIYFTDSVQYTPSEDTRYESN	Y
FimA-N2 (Actinomyces oris) (protein) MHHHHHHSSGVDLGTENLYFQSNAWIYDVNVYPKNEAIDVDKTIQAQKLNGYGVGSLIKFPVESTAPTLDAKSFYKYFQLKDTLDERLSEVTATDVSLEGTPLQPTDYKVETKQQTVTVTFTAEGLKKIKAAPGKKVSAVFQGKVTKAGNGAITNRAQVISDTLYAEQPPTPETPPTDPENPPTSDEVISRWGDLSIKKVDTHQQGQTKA	N
PEB3 Cj0289c (Campylobacter jejuni), Q9PIK7 (protein) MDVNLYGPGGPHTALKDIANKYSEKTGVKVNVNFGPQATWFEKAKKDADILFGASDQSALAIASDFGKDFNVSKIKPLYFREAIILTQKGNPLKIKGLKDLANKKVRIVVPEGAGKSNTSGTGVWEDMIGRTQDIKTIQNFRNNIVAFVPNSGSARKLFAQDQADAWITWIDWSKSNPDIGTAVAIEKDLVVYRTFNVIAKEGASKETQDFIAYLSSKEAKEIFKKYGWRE	Y

Would you kindly look at the next entry?
glycan array binding signal (z-score) >= -0.8 for CBM32-1 (Clostridium perfringens) (protein) MGSSHHHHHHSSGLVPRGSHMASGVEITEGVTVTAKGNTEGNTADLAIDGDLSTYWESSNDYKWIEVDLGGIYELSKIEIFNKDEAVYKYNIYASEDGENFNKIAYKNNDNVSDSNGNVHTIDNVRAGKIRIDVVQNSNSDRVNIAEINVFG ? Y
